This listing pairs compounds with measured microsomal CLint.
- measurement.description: in vitro
- reported.conditions: human, microsomes, CL
- Description: Intrinsic clearance in human microsome
Give a bare numeral; the unit µL/min/mg is implied.

[[record]]
compound = "Cl.O=C1NCC(c2ccc(F)cc2)C12CCN(C1(c3cccs3)CCCCC1)CC2 (racemic)"
metric = "microsomal CLint"
measure_unit = "µL/min/mg"
recorded_number = 9


QUERY: Supply microsomal CLint value. Item: CCCC1CNC(=O)C12CCN(C1(c3ccc(F)cc3)CCCCC1)CC2 (racemic)
RESULT: 14

QUERY: Supply microsomal CLint value. Item: "O=C1NCN(c2ccccc2)C12CCN(C1(c3ccccc3)CCCCC1)CC2"
RESULT: 82

QUERY: Supply microsomal CLint value. Item: Cl.O=C1NCC(c2ccc(F)cc2)C12CCN(C1(c3ccsc3)CCCCC1)CC2 (racemic)
RESULT: 4

###

- tested.system: Sodium- and chloride-dependent glycine transporter 1 (Homo sapiens)
- Sequence (P48067 whole entry): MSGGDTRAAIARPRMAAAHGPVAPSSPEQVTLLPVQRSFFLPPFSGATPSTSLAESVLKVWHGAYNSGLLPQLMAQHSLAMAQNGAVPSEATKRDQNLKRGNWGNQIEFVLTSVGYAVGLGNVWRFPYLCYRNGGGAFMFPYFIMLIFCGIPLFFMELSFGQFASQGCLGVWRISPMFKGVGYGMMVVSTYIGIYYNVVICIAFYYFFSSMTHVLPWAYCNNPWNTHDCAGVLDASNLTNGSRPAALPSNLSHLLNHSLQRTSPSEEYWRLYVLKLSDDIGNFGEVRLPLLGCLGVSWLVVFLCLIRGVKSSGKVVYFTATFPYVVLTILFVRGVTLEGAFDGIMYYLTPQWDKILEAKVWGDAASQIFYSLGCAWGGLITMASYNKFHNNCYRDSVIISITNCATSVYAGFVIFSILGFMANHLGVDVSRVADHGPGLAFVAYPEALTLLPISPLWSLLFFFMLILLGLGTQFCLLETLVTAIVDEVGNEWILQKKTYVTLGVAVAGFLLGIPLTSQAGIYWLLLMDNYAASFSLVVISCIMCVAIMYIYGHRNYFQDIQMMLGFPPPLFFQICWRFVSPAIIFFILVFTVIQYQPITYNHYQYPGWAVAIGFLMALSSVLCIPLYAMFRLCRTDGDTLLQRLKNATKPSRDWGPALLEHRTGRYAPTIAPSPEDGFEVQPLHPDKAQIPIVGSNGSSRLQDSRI
- measurement.description: Inhibition of [3H]glycine uptake at GlyT1
pEC50: −log10 of the molar value.
metric: pEC50

Worked examples, 2 compounds total:
[[record]]
compound = "O=C1NCC(c2ccc(F)cc2)C12CCN(C1(C3CC3)CCCCC1)CC2 (racemic)"
tested_system = "Sodium- and chloride-dependent glycine transporter 1 (Homo sapiens)"
metric = "pEC50"
result = "< 4.52"

[[record]]
compound = "O=C1NCC(c2ccccc2)C12CCN(C1(C3CC3)CCCCC1)CC2 (racemic)"
tested_system = "Sodium- and chloride-dependent glycine transporter 1 (Homo sapiens)"
metric = "pEC50"
result = "< 4.52"


Shifting focus to the compound that follows.
QUERY: Supply pEC50 value. Item: N#Cc1cccc(C2(N3CCC4(CC3)C(=O)NCC4c3ccc(F)cc3)CCCCC2)c1 (racemic)
RESULT: < 4.52
